# STUDY_TARGET: cellular GLS activity (Homo sapiens (Human), UniProt O94925)
# Sequence (O94925 55-669): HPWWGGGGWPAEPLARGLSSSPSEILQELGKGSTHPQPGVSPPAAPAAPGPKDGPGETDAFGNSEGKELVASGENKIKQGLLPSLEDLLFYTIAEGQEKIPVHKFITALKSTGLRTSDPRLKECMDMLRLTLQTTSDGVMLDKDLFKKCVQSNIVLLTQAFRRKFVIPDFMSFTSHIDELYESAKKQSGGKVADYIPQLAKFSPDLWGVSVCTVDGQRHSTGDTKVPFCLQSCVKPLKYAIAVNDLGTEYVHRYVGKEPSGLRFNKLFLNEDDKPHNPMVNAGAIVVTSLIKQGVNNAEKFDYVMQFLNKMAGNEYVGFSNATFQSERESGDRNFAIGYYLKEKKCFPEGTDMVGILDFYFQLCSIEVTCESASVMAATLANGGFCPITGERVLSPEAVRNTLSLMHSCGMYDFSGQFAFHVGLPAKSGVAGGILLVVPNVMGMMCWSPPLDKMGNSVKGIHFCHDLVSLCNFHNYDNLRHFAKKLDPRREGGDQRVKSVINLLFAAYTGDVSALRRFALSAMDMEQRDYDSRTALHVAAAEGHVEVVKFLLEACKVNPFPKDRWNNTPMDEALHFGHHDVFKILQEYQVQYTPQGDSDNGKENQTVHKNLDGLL
# EXPERIMENT_SUMMARY: GLS Cell Potency Assay (PC3 coupled assay measuring cellular glutamate depletion)
# CONDITIONS_USED: PC3 cells, 6 h incubation, cellular glutamate depletion; geometric mean where repeated; read-out: Assay b) GLS Cell Potency Assay IC50
# Method: The following assays were used to measure the effects of the compounds of the present invention: a) GLS Enzyme Potency Assay; b) GLS Cell Potency Assay; c) GLS Cell Proliferation Assay; and d) Mouse Xenograft Model. During the description of the assays, generally: • i. […] Compounds were assessed for their potential to inhibit cellular GLS activity by use of a PC3 coupled assay measuring cellular glutamate depletion. […]
Range-based classes on measured IC50: low interval = under 2 nM, middle interval = from 2 nM up to 5 nM, high interval = 5 nM and over

{"columns": ["COMPOUND", "CAT"],
 "data": [
  ["CO[C@H](C(=O)Nc1nnc(N[C@@H]2CCN(c3nccnn3)C2)s1)c1cccc(OC(F)F)c1 [Example 6(a)]", "middle interval"],
  ["CO[C@@H](C(=O)Nc1nnc(N[C@@H]2CCN(c3cccnn3)C2)s1)c1cccc(OC(F)(F)F)c1", "middle interval"],
  ["CO[C@H](C(=O)Nc1nnc(N[C@@H]2CCN(c3nccnn3)C2)s1)c1cccc(OC(F)F)c1 [19(a)]", "middle interval"],
  ["COc1ccc([C@H](OC)C(=O)Nc2nnc(N[C@@H]3CCN(c4cccnn4)C3)s2)cc1", "low interval"],
  ["COc1cccc([C@H](OC)C(=O)Nc2nnc(N[C@@H]3CCN(c4cccnn4)C3)s2)c1", "low interval"],
  ["COc1ccc([C@H](OC)C(=O)Nc2nnc(N[C@@H]3CCN(c4nccnn4)C3)s2)cc1", "middle interval"],
  ["CCO[C@H](C(=O)Nc1nnc(N[C@@H]2CCN(c3cccnn3)C2)s1)c1ccc(F)cc1", "low interval"],
  ["COc1cc([C@@H](OC)C(=O)Nc2nnc(N[C@@H]3CCN(c4cccnn4)C3)s2)ccc1F", "high interval"],
  ["CCO[C@H](C(=O)Nc1nnc(N[C@@H]2CCN(c3nccnn3)C2)s1)c1cccc(OC)c1", "middle interval"],
  ["CCO[C@@H](C(=O)Nc1nnc(N[C@@H]2CCN(c3cccnn3)C2)s1)c1ccc(F)c(OC)c1", "high interval"],
  ["CO[C@@H](C(=O)Nc1nnc(N[C@@H]2CCN(c3nccnn3)C2)s1)c1cccc(OC(F)F)c1 [19(b)]", "high interval"],
  ["CCO[C@H](C(=O)Nc1nnc(N[C@@H]2CCN(c3cccnn3)C2)s1)c1ccccc1", "low interval"],
  ["CCO[C@H](C(=O)Nc1nnc(N[C@@H]2CCN(c3nccnn3)C2)s1)c1ccccc1", "high interval"],
  ["CCO[C@H](C(=O)Nc1nnc(N[C@@H]2CCN(c3nccnn3)C2)s1)c1ccc(OC)cc1", "high interval"],
  ["COc1cccc([C@H](OC)C(=O)Nc2nnc(N[C@@H]3CCN(c4cncnn4)C3)s2)c1", "high interval"]
]}
